Tested on: MYO3A
test-context: concentration: 1 μM, replicates: in singlicate; n = 1;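 further: KINOMEscan kinase panel screen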
Please provide measured %Inh for the entries that follow.
Give just the number in %; leave the unit off.

The molecule "OCCCNc1nccc(-c2c(-c3cccc(C(F)(F)F)c3)nn3cc(C(F)(F)F)ccc23)n1" showed %Inh equal to 43

%Inh reported for this molecule "O=C(Nc1ccc2c(c1)OCO2)NC1CCN(c2ccnc(NCc3ccc(F)cc3)n2)CC1" : 0

Lookup result for "Cc1ccc(-c2ccc3c(ccc4sc5c(c43)NC[C@@H](C)N=C5N(C)C)n2)cn1" ; measured %Inh: 0

---

Test system: QSK
test-context: concentration: 1 μM, replicates: in singlicate; n = 1
assay-readout: %Inh (%)
Response body: numeric value in %, unit text excluded.

Just so you know, measured %Inh for "Cc1ccc(-c2ccc3c(ccc4sc5c(c43)NC[C@@H](C)N=C5N(C)C)n2)cn1" came out at 0

The recorded %Inh for entry CCS(=O)c1ccc(-c2coc3ccc(-c4nnc(C)o4)cc23)cc1 (stereo not shown) equals 0

// sample Cc1nnc(-c2ccc3ncn(-c4ccc(S(C)=O)cc4)c3c2)o1 (stereo not shown) , its %Inh was 0

%Inh recorded for this compound, "O=C(NCc1cccs1)c1cc(C(=O)c2c(Cl)cccc2Cl)c[nH]1" , is 0

Value of %Inh reported for the compound "COc1ccc(-c2cc3c(C)nc(N)nc3n([C@H]3CC[C@H](O)CC3)c2=O)cn1" is 0

Documented %Inh of "O=C(Nc1ccc2c(c1)OCO2)NC1CCN(c2ccnc(NCc3ccc(F)cc3)n2)CC1" : 0

The compound listed as "COc1ccc(-c2cc3c(C)nc(N)nc3n([C@H]3CC[C@H](OCCO)CC3)c2=O)cn1" has a reported %Inh of 0

// field: %Inh; key: "O=C1NC(=O)C(c2ccccc2)=C1Nc1cccc(O)c1" ; value = 9

Summary for this compound, COc1ccc(Nc2nccc(N3CCC(NS(=O)(=O)c4ccc(NC(C)=O)cc4)C3)n2)cc1 (stereo not shown) : %Inh is 11

Kindly note the recorded %Inh for "Fc1cccc(CSc2nnc(-c3ccc4c(c3)CCO4)o2)c1" , which is 0

Reported %Inh of "Cc1nn2c(=O)cc(N3CCOCC3)nc2n1Cc1cccc(Cl)c1Cl" : 8

# compound "COc1cc2ncn(-c3cc(OCc4ccncc4Br)c(C(N)=O)s3)c2cc1OC" ; its %Inh = 2

Sure, the documented %Inh for "Cc1nnc(-c2ccc(C)c(-c3ccc(C(=O)O)cc3)c2)o1" is 0

Input "COC(=O)c1c(-c2ccccc2)c2cc(Br)ccc2c(=O)n1Cc1ccc(S(C)(=O)=O)cc1" . Output %Inh: 0

Sample "CCc1nc(-c2cccc(C)c2)c(-c2ccncc2)s1" ; %Inh observed: 0

Lab book: %Inh of "COC(=O)c1c(-c2ccccc2)c2cc(Br)ccc2c(=O)n1Cc1ccc(NC(=O)CCC(=O)O)cc1" noted as 0

Entry "O=C(Nc1n[nH]c2nc(-c3ccccc3)c(Br)cc12)C1CC1" , %Inh reported as 0

Lab book: %Inh of "COC(=O)c1c(-c2ccccc2)c2cc(C)ccc2c(=O)n1Cc1ccccc1" noted as 0

Reported %Inh for "O=C(Nc1n[nH]c2cc(-c3ccccc3F)ccc12)C1CC1" was 6
